Cited source: PubChem BioAssay (NCATS)

Molecular target: Cytochrome P450 2C9 (Homo sapiens)
Experiment: Cytochrome P450 family 2 subfamily C member 9 (CYP2C9) small molecule antagonists: luciferase biochemical (cell-free) qHTS assay (AID 1645842); note: nearly all actives have a fitted effect of over 55% in size
Details: P450-Glo CYP2C9 enzyme assay, luciferin luminescence; series mostly up to 57.4 µM
Inconclusive results are not listed. The source made the active and inactive calls. Calls come from the whole dose curve; as a rule, active = well fitted inhibition curve with a large enough effect in the repeat runs; inconclusive = weak or mixed curves; inactive = no such curve, though single readings can be large or run the other way.
Possible outcomes: TRUE = active, FALSE = inactive

{"Compound": "COc1ccc(C(=O)Nc2c(Cl)cncc2Cl)cc1OC1CCCC1", "Experimental Target": "Cytochrome P450 2C9 (Homo sapiens)", "Discrete Label": "TRUE"}
{"Compound": "Cc1nc(C(=O)N2CCC[C@H]2Cc2nnc(-c3ccccc3)o2)c(-c2ccccc2F)s1", "Experimental Target": "Cytochrome P450 2C9 (Homo sapiens)", "Discrete Label": "TRUE"}
{"Compound": "Cc1cc(Nc2nc(-c3ccccc3)nc3ccccc23)n[nH]1", "Experimental Target": "Cytochrome P450 2C9 (Homo sapiens)", "Discrete Label": "TRUE"}
{"Compound": "COc1cc2ncnc(Nc3cccc(I)c3)c2cc1OC", "Experimental Target": "Cytochrome P450 2C9 (Homo sapiens)", "Discrete Label": "TRUE"}
{"Compound": "O=C(NCCCN1CCOCC1)c1cnn2c(-c3ccccc3)cc(-c3ccccc3)nc12", "Experimental Target": "Cytochrome P450 2C9 (Homo sapiens)", "Discrete Label": "TRUE"}
{"Compound": "Cc1ccccc1C(C(=O)NC1CCCCC1)N(C(=O)Cn1cnc2ccccc21)c1cccc(F)c1 (stereo not given)", "Experimental Target": "Cytochrome P450 2C9 (Homo sapiens)", "Discrete Label": "TRUE"}
{"Compound": "CCc1ccccc1OC[C@@H](O)CN[C@H]1CCCc2ccccc21", "Experimental Target": "Cytochrome P450 2C9 (Homo sapiens)", "Discrete Label": "FALSE"}
{"Compound": "CNC(C)C(=O)NC(C(=O)N1CCCC1C(=O)Nc1snnc1-c1ccccc1)C1CCCCC1 (stereo not given)", "Experimental Target": "Cytochrome P450 2C9 (Homo sapiens)", "Discrete Label": "FALSE"}
{"Compound": "Clc1ccc(Nc2nc3ccccc3c3nc(C4CCCCC4)[nH]c23)cc1Cl", "Experimental Target": "Cytochrome P450 2C9 (Homo sapiens)", "Discrete Label": "TRUE"}
{"Compound": "C[C@@H](N[C@H]1CCCC[C@@H]1NC(=O)c1ccc(Cl)cc1)c1cccc2ccccc12", "Experimental Target": "Cytochrome P450 2C9 (Homo sapiens)", "Discrete Label": "TRUE"}
{"Compound": "COc1ccc(-c2ccc3c(N4CCOCC4C)nc(N4CCOCC4C)nc3n2)cc1CO (stereo not given)", "Experimental Target": "Cytochrome P450 2C9 (Homo sapiens)", "Discrete Label": "TRUE"}
{"Compound": "O=c1[nH]c2ccc(C#CCN3CCC(Cc4ccccc4)CC3)cc2[nH]1", "Experimental Target": "Cytochrome P450 2C9 (Homo sapiens)", "Discrete Label": "TRUE"}
{"Compound": "CCCOc1ccc(S(=O)(=O)N2CCN(CCO)CC2)cc1-c1nc2c(CCC)cn(CC)c2c(=O)[nH]1", "Experimental Target": "Cytochrome P450 2C9 (Homo sapiens)", "Discrete Label": "TRUE"}
{"Compound": "Cc1nc(C#Cc2ccnc(Cl)c2)c(C)n1-c1ccc(OC(F)(F)F)cc1", "Experimental Target": "Cytochrome P450 2C9 (Homo sapiens)", "Discrete Label": "TRUE"}
{"Compound": "Cc1noc(C)c1-c1cc(O)cc(C(O)c2ccccc2)c1 (stereo not given)", "Experimental Target": "Cytochrome P450 2C9 (Homo sapiens)", "Discrete Label": "TRUE"}
{"Compound": "Cc1cc(N2CCOCC2)ccc1Nc1nc(NC2CCCCC2)c2[nH]cnc2n1", "Experimental Target": "Cytochrome P450 2C9 (Homo sapiens)", "Discrete Label": "TRUE"}
{"Compound": "CN(C)[C@@H]1CCc2[nH]c3ccc(NC(=O)c4ccc(F)cc4)cc3c2C1", "Experimental Target": "Cytochrome P450 2C9 (Homo sapiens)", "Discrete Label": "FALSE"}
{"Compound": "COC(C)(C)CCn1nc(Nc2c(C)cccc2C)c2cnc(Nc3ccc(OCCN4CCCC4)c(F)c3)nc21", "Experimental Target": "Cytochrome P450 2C9 (Homo sapiens)", "Discrete Label": "TRUE"}
{"Compound": "CC(C)c1ccccc1OC(=O)NCCc1ccc2ccccc2c1", "Experimental Target": "Cytochrome P450 2C9 (Homo sapiens)", "Discrete Label": "TRUE"}
{"Compound": "COc1ccc2nccc(C(=O)CC[C@@H]3CCN(CC#Cc4cc(F)cc(F)c4F)C[C@@H]3C(=O)O)c2c1", "Experimental Target": "Cytochrome P450 2C9 (Homo sapiens)", "Discrete Label": "TRUE"}
{"Compound": "COc1cc2ncnc(Nc3ccc(O)c(Br)c3)c2cc1OC", "Experimental Target": "Cytochrome P450 2C9 (Homo sapiens)", "Discrete Label": "TRUE"}
{"Compound": "CCC(=O)Oc1ccc2c(c1)CC[C@@H]1[C@@H]2CC[C@]2(C)[C@@H](OC(=O)CC)CC[C@@H]12", "Experimental Target": "Cytochrome P450 2C9 (Homo sapiens)", "Discrete Label": "TRUE"}
{"Compound": "O=C(Nc1ccccc1C(=O)Nc1ccc(CCO)cc1)c1ccc([N+](=O)[O-])cc1", "Experimental Target": "Cytochrome P450 2C9 (Homo sapiens)", "Discrete Label": "FALSE"}
{"Compound": "C=CC(=O)N1CCC[C@@H](n2nc(-c3cccc(C(=O)Nc4ccc(C(C)C)c(C)c4)c3)c3c(N)ncnc32)C1", "Experimental Target": "Cytochrome P450 2C9 (Homo sapiens)", "Discrete Label": "TRUE"}
{"Compound": "O=C(Nc1cc(C(F)(F)F)ccc1N1CCCCC1)c1ccncc1", "Experimental Target": "Cytochrome P450 2C9 (Homo sapiens)", "Discrete Label": "TRUE"}
{"Compound": "CNCc1cc(-c2ccccc2F)n(S(=O)(=O)c2cccnc2)c1", "Experimental Target": "Cytochrome P450 2C9 (Homo sapiens)", "Discrete Label": "FALSE"}
{"Compound": "N#Cc1cnc2c(Cl)cc(NCc3cn(CCN4CCCCCC4)nn3)cc2c1Nc1ccc(F)c(Cl)c1", "Experimental Target": "Cytochrome P450 2C9 (Homo sapiens)", "Discrete Label": "TRUE"}
{"Compound": "O=C(N[C@H](Cc1cscn1)C(=O)N[C@@H](CC1CCCCC1)[C@@H](O)[C@@H](O)C1CC1)c1nc2ccccc2[nH]1", "Experimental Target": "Cytochrome P450 2C9 (Homo sapiens)", "Discrete Label": "TRUE"}
{"Compound": "Cc1ccnn1-c1ccc(C(=O)N2CCN(S(=O)(=O)c3ccc(Cl)c(C(F)(F)F)c3)CC2)cc1", "Experimental Target": "Cytochrome P450 2C9 (Homo sapiens)", "Discrete Label": "TRUE"}
{"Compound": "O=C(Nc1ccc(C(O)(C(F)(F)F)C(F)(F)F)cc1)c1ccc(C(F)(F)F)cc1", "Experimental Target": "Cytochrome P450 2C9 (Homo sapiens)", "Discrete Label": "TRUE"}
{"Compound": "CN(C)C(=O)Nc1cc(-c2ccccc2)ccc1N(C)C", "Experimental Target": "Cytochrome P450 2C9 (Homo sapiens)", "Discrete Label": "TRUE"}
{"Compound": "CCCCC1CCN(CCCN2C(=O)CCc3ccccc32)CC1", "Experimental Target": "Cytochrome P450 2C9 (Homo sapiens)", "Discrete Label": "FALSE"}
{"Compound": "C=CC(=O)N1CCC(Oc2cc3c(Nc4ccc(Cl)c(Cl)c4F)ncnc3cc2OC)CC1", "Experimental Target": "Cytochrome P450 2C9 (Homo sapiens)", "Discrete Label": "TRUE"}
{"Compound": "COc1ccccc1N1CCN(c2ncnc3n[nH]c(Br)c23)CC1", "Experimental Target": "Cytochrome P450 2C9 (Homo sapiens)", "Discrete Label": "TRUE"}
{"Compound": "COc1ccc(Cl)c(Nc2ncnc3cc(OCC4CCN(C)CC4)c(OC)cc23)c1", "Experimental Target": "Cytochrome P450 2C9 (Homo sapiens)", "Discrete Label": "FALSE"}
{"Compound": "COc1ccc(Oc2c(Cl)cnn(-c3cc(C)cc(C)c3)c2=O)cc1", "Experimental Target": "Cytochrome P450 2C9 (Homo sapiens)", "Discrete Label": "TRUE"}
{"Compound": "C[C@@H]1C[C@H](C)CN(CCC(=O)Nc2ccc(Br)cc2)C1", "Experimental Target": "Cytochrome P450 2C9 (Homo sapiens)", "Discrete Label": "FALSE"}
{"Compound": "COc1cc2c(cc1-c1c(C)noc1C)ncc1[nH]c(=O)n(C(C)c3ccccn3)c12 (stereo not given)", "Experimental Target": "Cytochrome P450 2C9 (Homo sapiens)", "Discrete Label": "TRUE"}
{"Compound": "OC1(CN2CCC(COc3noc4cccc(O[C@@H]5CCOC5)c34)CC2)CCOCC1", "Experimental Target": "Cytochrome P450 2C9 (Homo sapiens)", "Discrete Label": "TRUE"}
{"Compound": "Cc1c(OCc2cccc(-c3ccc(C(=O)O)cc3)c2)cc2c(c1C)C(=O)C(C1CCCC1)C2 (stereo not given)", "Experimental Target": "Cytochrome P450 2C9 (Homo sapiens)", "Discrete Label": "TRUE"}
